target: Free fatty acid receptor 4 (Homo sapiens, UniProt Q5NUL3); test: Agonist activity at human FFAR4 expressed in CHO cells assessed as beta-arrestin recruitment after 90 mins by luminescence assay; format: functional, cell-based
Sequence (Q5NUL3 whole entry): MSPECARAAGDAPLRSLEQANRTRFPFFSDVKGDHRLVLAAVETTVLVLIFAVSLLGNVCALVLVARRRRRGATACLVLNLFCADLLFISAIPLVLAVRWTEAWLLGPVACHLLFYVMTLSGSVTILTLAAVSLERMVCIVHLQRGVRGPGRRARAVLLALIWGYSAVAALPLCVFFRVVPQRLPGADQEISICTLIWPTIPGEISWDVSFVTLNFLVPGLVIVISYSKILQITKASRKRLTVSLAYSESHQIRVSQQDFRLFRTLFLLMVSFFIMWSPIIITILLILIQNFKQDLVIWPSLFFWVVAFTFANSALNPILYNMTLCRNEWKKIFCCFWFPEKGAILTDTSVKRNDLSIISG
pEC50: −log10 of the molar value.
experimentalEndpoint: pEC50

[Q] Recorded pEC50 for Cc1cc(OCCCS(C)(=O)=O)cc(C)c1-c1cccc(COc2ccc3c(c2)OC[C@H]3CC(=O)O)c1 with Free fatty acid receptor 4 (Homo sapiens, UniProt Q5NUL3), please?
[A] < 5.00

----------
assay: Half life in Sprague-Dawley rat at 10 mg/kg, po administered as single dose by LC-PDA-MS/MS analysis; format: ADME, organism-based; conditions: in vivo
Exercise: state measured half-life for each of the molecules provided.
Just the number in h, nothing appended.

[Q] Return reported half-life; argument: Cc1ccc(-c2ccc(F)cc2COc2ccc(CCC(=O)O)cc2)cc1
[A] 0.79

[Q] Return reported half-life; argument: [2H]C([2H])(Cc1ccc(OCc2cc(F)ccc2-c2ccc(C)cc2)cc1)C(=O)O
[A] 1.66
